These measurements were taken from ChEMBL document CHEMBL1909294.

test system: Hepatotoxicity
PARAMETER: HepSE_hepatomegaly
Would you mind answering with just the numeric figure?

Prompt line: Recorded HepSE_hepatomegaly for CCC1=C[C@@H]2CN(C1)Cc1c([nH]c3ccccc13)[C@@](C(=O)OC)(c1cc3c(cc1OC)N(C)[C@H]1[C@@](O)(C(=O)OC)[C@H](OC(C)=O)[C@]4(CC)C=CCN5CC[C@]31[C@@H]54)C2 [VINORELBINE] , please?
Response line: 0

* * *

system: Hepatotoxicity
PARAMETER: HepSE_hepatic failure
A bare number is all that is needed in reply.

Solved entries (count: 5):
Prompt line: Looking for the measured HepSE_hepatic failure of CC[C@@H]1C(=O)OC[C@@H]1Cc1cncn1C [PILOCARPINE] , can you help?
Response line: 0

Prompt line: May I ask what HepSE_hepatic failure has been recorded for CC(C(=O)O)c1ccc(-c2ccccc2)c(F)c1 (centres undefined) [FLURBIPROFEN] ?
Response line: 1

Prompt line: Requested read-out: HepSE_hepatic failure. Entry: O=C1Cc2cc(CCN3CCN(c4nsc5ccccc45)CC3)c(Cl)cc2N1 [ZIPRASIDONE]
Response line: 0

Prompt line: Quick check: HepSE_hepatic failure of O=C(N[C@H](CO)[C@H](O)c1ccc([N+](=O)[O-])cc1)C(Cl)Cl [CHLORAMPHENICOL] ?
Response line: 0

Prompt line: Recorded HepSE_hepatic failure of O=C(O)CCCCCCCC(=O)O [AZELAIC ACID] , please.
Response line: 0

Next:
Prompt line: What value of HepSE_hepatic failure has been reported for the following molecule? CCC[C@H](N[C@@H](C)C(=O)N1[C@H](C(=O)O)C[C@@H]2CCCC[C@@H]21)C(=O)OCC [PERINDOPRIL]
Response line: 1

* * *

tested on: Hepatotoxicity; details: Liver
HepSE_hepatitis listing for selected compounds.
Lab note: jot the number down without any unit.

Recorded results for 2 compounds are shown here.
Prompt line: If you can, please state the reported HepSE_hepatitis value of CN(C)C(=N)N=C(N)N [METFORMIN] .
Response line: 1

Prompt line: Item under review: NCCc1ccc(O)c(O)c1 [DOPAMINE] . Reported HepSE_hepatitis?
Response line: 0

Below: the item to evaluate.
Prompt line: // lookup HepSE_hepatitis for Clc1ccccc1CN1CCc2sccc2C1 [TICLOPIDINE]
Response line: 1

* * *

The entries below come with measured HepSE_hepatitis values attached.
tested on: Hepatotoxicity
Keep the answer to the number alone.

// below: answered molecules
Prompt line: Query the reported HepSE_hepatitis for Hepatotoxicity; item: CC(=O)CC(c1ccccc1)c1c(O)c2ccccc2oc1=O (centres undefined)
Response line: 1

Prompt line: Query HepSE_hepatitis on Hepatotoxicity for COc1cc2nc(N3CCN(C(=O)C4COc5ccccc5O4)CC3)nc(N)c2cc1OC (centres undefined)
Response line: 1

Prompt line: Tell me reported HepSE_hepatitis for C[C@@H]1CN([C@H]2CC[C@](C#N)(c3ccc(F)cc3)CC2)CC[C@]1(C(=O)O)c1ccccc1 , tested with Hepatotoxicity.
Response line: 0

Prompt line: Request - read-out HepSE_hepatitis | tested on Hepatotoxicity | molecule O=P(O)(O)C(Sc1ccc(Cl)cc1)P(=O)(O)O
Response line: 0

Prompt line: Recorded HepSE_hepatitis for CN(C)CCC=C1c2ccccc2CCc2ccccc21 with Hepatotoxicity, please?
Response line: 1

Prompt line: Query the reported HepSE_hepatitis for Hepatotoxicity; item: C[C@]12CCC(=O)C=C1CC[C@@H]1[C@@H]2[C@@H](O)C[C@@]2(C)[C@H]1CC[C@]2(O)C(=O)CO [HYDROCORTISONE]
Response line: 0

Prompt line: Form field: HepSE_hepatitis recorded for CC(C(=O)O)c1ccc(-c2ccccc2)c(F)c1 (centres undefined) with Hepatotoxicity (enter value)
Response line: 1

Prompt line: // fetch Hepatotoxicity HepSE_hepatitis for Oc1ncnc2[nH]ncc12
Response line: 1

Lab note: next molecule to report on.
Prompt line: Missing value: HepSE_hepatitis, Hepatotoxicity, entry CC(C)(C)NCC(O)COc1cccc2c1CCC(=O)N2 (centres undefined) . Fill in?
Response line: 0

* * *

# HepSE_cholecystitis measurements, system: Hepatotoxicity
Write no unit; give the number alone.

Prompt line: Return reported HepSE_cholecystitis; argument: OCCOCCN1CCN(C(c2ccccc2)c2ccc(Cl)cc2)CC1 (stereo unspecified) [HYDROXYZINE]
Response line: 0

Prompt line: Name the recorded HepSE_cholecystitis for CC[C@H]1OC(=O)[C@H](C)[C@@H](O[C@H]2C[C@@](C)(OC)[C@@H](O)[C@H](C)O2)[C@H](C)[C@@H](O[C@@H]2O[C@H](C)C[C@H](N(C)C)[C@H]2O)[C@](C)(O)C[C@@H](C)C(=O)[C@H](C)[C@@H](O)[C@]1(C)O .
Response line: 0

Prompt line: Would you mind telling me what HepSE_cholecystitis value was observed for Nc1nc2c(ncn2COCCO)c(=O)[nH]1 ?
Response line: 0

Prompt line: Could you share which HepSE_cholecystitis value was measured for CN(C)CC/C=C1/c2ccccc2COc2ccc(CC(=O)O)cc21 ?
Response line: 0

Prompt line: Reported HepSE_cholecystitis for CCC(=O)O[C@](Cc1ccccc1)(c1ccccc1)[C@H](C)CN(C)C : what is it?
Response line: 0

Others:
Prompt line: // returns reported HepSE_cholecystitis for input CC(C)[C@@H]1NC(=O)[C@H](CCCCN)NC(=O)[C@@H](Cc2c[nH]c3ccccc23)NC(=O)[C@H](Cc2ccc(O)cc2)NC(=O)[C@@H](NC(=O)[C@H](N)Cc2ccc3ccccc3c2)CSSC[C@@H](C(=O)N[C@H](C(N)=O)[C@@H](C)O)NC1=O [LANREOTIDE]
Response line: 1

* * *

Each entry below carries its measured HepSE_liver function tests abnormal, system: Hepatotoxicity.
API note: the answer field is a bare number with no unit suffix.

# annotated cases, reported HepSE_liver function tests abnormal shown
Prompt line: Give Hepatotoxicity HepSE_liver function tests abnormal for CN1CCC(=C2c3ccccc3C=Cc3ccccc32)CC1
Response line: 0

Prompt line: Lab note: need HepSE_liver function tests abnormal with Hepatotoxicity for entry CN1C(C(=O)Nc2ccccn2)=C(O)c2ccccc2S1(=O)=O , please look it up.
Response line: 0

Prompt line: Quick check: HepSE_liver function tests abnormal on Hepatotoxicity, item NC[C@H]1O[C@H](O[C@H]2[C@H](O)[C@@H](O[C@H]3O[C@H](CO)[C@@H](O)[C@H](N)[C@H]3O)[C@H](N)C[C@@H]2N)[C@H](N)C[C@@H]1O ?
Response line: 0

Continuing:
Prompt line: Could you share what HepSE_liver function tests abnormal was measured for CC(C)C(=O)Nc1ccc([N+](=O)[O-])c(C(F)(F)F)c1 [FLUTAMIDE] , tested on Hepatotoxicity?
Response line: 0

* * *

Dear all, this message contains HepSE_hepatic failure results, target or system Hepatotoxicity.
Just the number, please, no unit after it.

A selection of reference data follows.
Prompt line: Given CCCCC[C@H](O)/C=C/[C@H]1[C@H](O)CC(=O)[C@@H]1C/C=C\CCCC(=O)O , state its recorded HepSE_hepatic failure.
Response line: 0

Prompt line: Please look up its HepSE_hepatic failure: O=C(O)P(=O)(O)O
Response line: 0

Prompt line: Which value of HepSE_hepatic failure has been reported for N=C(N)NC(=O)c1nc(Cl)c(N)nc1N [AMILORIDE] in the records?
Response line: 0

Prompt line: Param item = NCCC(O)(P(=O)(O)O)P(=O)(O)O ; retrieve measured HepSE_hepatic failure.
Response line: 0

In the following, a different compound is considered.
Prompt line: # query: HepSE_hepatic failure of entry C=C(c1ccc(C(=O)O)cc1)c1cc2c(cc1C)C(C)(C)CCC2(C)C
Response line: 1

* * *

// reported HepSE_liver disease per item
system: Hepatotoxicity; details: Liver
When you answer, write just the number.

Prompt line: Field request: HepSE_liver disease | item: NCCCNCCSP(=O)(O)O
Response line: 0

Prompt line: Sample CC(C)NCC(O)c1ccc(O)c(O)c1 (stereo not given) — what was its HepSE_liver disease?
Response line: 0

Prompt line: Record request: HepSE_liver disease value, item CCCc1cc(=O)[nH]c(=S)[nH]1
Response line: 0

# evaluate next
Prompt line: Which measured HepSE_liver disease value corresponds to O=P1(N(CCCl)CCCl)NCCCO1 (stereo not given) [CYCLOPHOSPHAMIDE ANHYDROUS] ?
Response line: 0

* * *

Heads up, these molecules all have HepSE_elevated liver function tests values measured for Hepatotoxicity.

Before answering, review these 5 worked examples.
Prompt line: // lookup HepSE_elevated liver function tests | system=Hepatotoxicity | key= CCOC(=O)[C@H](CCc1ccccc1)N[C@H]1CCCN2CCC[C@@H](C(=O)O)N2C1=O [CILAZAPRIL]
Response line: 0

Prompt line: Write down the reported HepSE_elevated liver function tests of CCN(CC)C(C)C(=O)c1ccccc1 (stereo not given) [DIETHYLPROPION] , test system: Hepatotoxicity.
Response line: 0

Prompt line: Form field - read-out: HepSE_elevated liver function tests; system: Hepatotoxicity; submitted item: COc1cc2ncnc(Nc3ccc(F)c(Cl)c3)c2cc1OCCCN1CCOCC1 [GEFITINIB]
Response line: 0

Prompt line: Kindly state the measured HepSE_elevated liver function tests obtained for FC(F)OC(Cl)C(F)(F)F (stereo not given) [ISOFLURANE] with Hepatotoxicity.
Response line: 0

Prompt line: Hi! What's the reported HepSE_elevated liver function tests for C[C@]12C/C(=C/O)C(=O)C[C@@H]1CC[C@@H]1[C@@H]2CC[C@@]2(C)[C@H]1CC[C@]2(C)O [OXYMETHOLONE] on Hepatotoxicity?
Response line: 0

---
Prompt line: Request: HepSE_elevated liver function tests, test system Hepatotoxicity, entry CS(=O)(=O)c1ccc(C2=C(c3ccccc3)C(=O)OC2)cc1 [ROFECOXIB]
Response line: 0

Prompt line: # query: HepSE_elevated liver function tests | item CS(=O)(=O)OCCCCOS(C)(=O)=O [BUSULFAN] | system: Hepatotoxicity
Response line: 0

Prompt line: Any idea what HepSE_elevated liver function tests came out for CN1C(C(=O)Nc2ccccn2)=C(O)c2ccccc2S1(=O)=O [PIROXICAM] on Hepatotoxicity?
Response line: 0

Prompt line: What reported HepSE_elevated liver function tests corresponds to COc1ccc(-c2ccc3cc(C(=O)O)ccc3c2)cc1C12CC3CC(CC(C3)C1)C2 on Hepatotoxicity?
Response line: 0

Prompt line: Missing value: HepSE_elevated liver function tests, Hepatotoxicity, entry CC(C)=CCN1CC[C@]2(C)c3cc(O)ccc3C[C@H]1[C@H]2C [(+)-PENTAZOCINE] . Fill in?
Response line: 0
